# protocol-summary: Oral bioavailability in mouse at 10 mg/kg
# Format: ADME, organism-based
# measurement-setup: in vivo, read-out: ED15
observable: bioavailability (%)
Give bare numbers, in %.

Qu. Please give measured bioavailability of the following entry: Fc1ccc(Nc2ncnc3nc(Nc4ccc(CN5CCOCC5)cc4)sc23)cc1Cl
Ans. 67

---

# protocol-summary: AUC in mouse at 10 mg/kg
# Assay type: ADME, organism-based
# Set-up: dose 10 mg/kg
# measurement-setup: plasma
observable: AUC (ng·h/mL)
Give bare numbers, in ng·h/mL.

Qu. Give the reported AUC for this molecule. Fc1ccc(Nc2ncnc3nc(Nc4ccc(CN5CCOCC5)cc4)sc23)cc1Cl
Ans. 10800

---

// endpoint pIC50 / system Epidermal growth factor receptor (Homo sapiens)
Give bare numbers, as −log10 of the molar value.

Examples with answers:
| structure-smiles-string | target | pIC50 |
| --- | --- | --- |
| Fc1ccc(Nc2ncnc3nc(Nc4ccc(CN5CCCCC5)cc4)sc23)cc1Cl | Epidermal growth factor receptor (Homo sapiens) | 8.00 |
| CN1CCN(Cc2ccc(Nc3nc4ncnc(Nc5ccc(OCc6cccc(F)c6)c(Cl)c5)c4s3)cc2)CC1 | Epidermal growth factor receptor (Homo sapiens) | 8.05 |
| COCCN(CCOC)S(=O)(=O)c1ccc(Nc2nc3ncnc(Nc4ccc(F)c(Cl)c4)c3s2)cc1 | Epidermal growth factor receptor (Homo sapiens) | 7.60 |
| Fc1ccc(Nc2ncnc3nc(Nc4ccc(CCN5CCOCC5)cc4)sc23)cc1Cl | Epidermal growth factor receptor (Homo sapiens) | 7.82 |

Please report pIC50 for every entry that follows.
1. C#Cc1cccc(Nc2ncnc3nc(Nc4ccc(CN5CCOCC5)cc4)sc23)c1
2. Fc1ccc(Nc2ncnc3nc(Nc4ccc(CN5CCOCC5)cc4)sc23)cc1Cl

Ans.
[7.37, 7.92]

---

# protocol-summary: Metabolic stability to human liver microsomes assessed as half life
# Type: ADME, Microsome
Exercise: state measured half-life for each of the molecules provided.

| structure-smiles-string | result |
| --- | --- |
| CN(C)Cc1ccc(Nc2nc3ncnc(Nc4ccc(F)c(Cl)c4)c3s2)cc1 | > 100 min |
| OC[C@@H]1CCCN1Cc1ccc(Nc2nc3ncnc(Nc4ccc(F)c(Cl)c4)c3s2)cc1 | > 100 min |
| CCc1nccn1Cc1ccc(Nc2nc3ncnc(Nc4ccc(F)c(Cl)c4)c3s2)cc1 | 3 min |
| N#Cc1cnc2nc(Nc3ccc(CN4CCOCC4)cc3)sc2c1Nc1ccc(F)c(Cl)c1 | 13 min |
| NS(=O)(=O)c1ccc(Nc2nc3ncnc(Nc4cccc(Cl)c4)c3s2)cc1 | > 100 min |

Hi team, please reply with half-life for each item in this list.
1. Fc1ccc(Nc2ncnc3nc(Nc4ccc(CN5CCOCC5)cc4)sc23)cc1Cl
2. Fc1ccc(Nc2ncnc3nc(Nc4ccc(CCN5CCOCC5)cc4)sc23)cc1Cl

Ans.
["19 min", "11 min"]

---

For each of the molecules below, state its solubility.
# protocol-summary: Solubility in aqueous buffer at pH 2.0
# Type: physicochemical
Give bare numbers, in µg/mL.

Solved entries (count: 3):
| structure-smiles-string | measured-number |
| --- | --- |
| Fc1ccc(Nc2ncnc3nc(Nc4ccc(CCN5CCOCC5)cc4)sc23)cc1Cl | 290 |
| OC[C@@H]1CCCN1Cc1ccc(Nc2nc3ncnc(Nc4ccc(F)c(Cl)c4)c3s2)cc1 | 360 |
| CCc1nccn1Cc1ccc(Nc2nc3ncnc(Nc4ccc(F)c(Cl)c4)c3s2)cc1 | 300 |

Return reported solubility values for all items listed beneath this line.
1. N#Cc1cnc2nc(Nc3ccc(CN4CCOCC4)cc3)sc2c1Nc1ccc(F)c(Cl)c1
2. CN(C)Cc1ccc(Nc2nc3ncnc(Nc4ccc(F)c(Cl)c4)c3s2)cc1

Ans.
1: 37; 2: 390
